Reference for the values: patent US9186360B2

# Target of assay: human TRPA1 (Homo sapiens (Human))
# Sequence (O75762 whole entry): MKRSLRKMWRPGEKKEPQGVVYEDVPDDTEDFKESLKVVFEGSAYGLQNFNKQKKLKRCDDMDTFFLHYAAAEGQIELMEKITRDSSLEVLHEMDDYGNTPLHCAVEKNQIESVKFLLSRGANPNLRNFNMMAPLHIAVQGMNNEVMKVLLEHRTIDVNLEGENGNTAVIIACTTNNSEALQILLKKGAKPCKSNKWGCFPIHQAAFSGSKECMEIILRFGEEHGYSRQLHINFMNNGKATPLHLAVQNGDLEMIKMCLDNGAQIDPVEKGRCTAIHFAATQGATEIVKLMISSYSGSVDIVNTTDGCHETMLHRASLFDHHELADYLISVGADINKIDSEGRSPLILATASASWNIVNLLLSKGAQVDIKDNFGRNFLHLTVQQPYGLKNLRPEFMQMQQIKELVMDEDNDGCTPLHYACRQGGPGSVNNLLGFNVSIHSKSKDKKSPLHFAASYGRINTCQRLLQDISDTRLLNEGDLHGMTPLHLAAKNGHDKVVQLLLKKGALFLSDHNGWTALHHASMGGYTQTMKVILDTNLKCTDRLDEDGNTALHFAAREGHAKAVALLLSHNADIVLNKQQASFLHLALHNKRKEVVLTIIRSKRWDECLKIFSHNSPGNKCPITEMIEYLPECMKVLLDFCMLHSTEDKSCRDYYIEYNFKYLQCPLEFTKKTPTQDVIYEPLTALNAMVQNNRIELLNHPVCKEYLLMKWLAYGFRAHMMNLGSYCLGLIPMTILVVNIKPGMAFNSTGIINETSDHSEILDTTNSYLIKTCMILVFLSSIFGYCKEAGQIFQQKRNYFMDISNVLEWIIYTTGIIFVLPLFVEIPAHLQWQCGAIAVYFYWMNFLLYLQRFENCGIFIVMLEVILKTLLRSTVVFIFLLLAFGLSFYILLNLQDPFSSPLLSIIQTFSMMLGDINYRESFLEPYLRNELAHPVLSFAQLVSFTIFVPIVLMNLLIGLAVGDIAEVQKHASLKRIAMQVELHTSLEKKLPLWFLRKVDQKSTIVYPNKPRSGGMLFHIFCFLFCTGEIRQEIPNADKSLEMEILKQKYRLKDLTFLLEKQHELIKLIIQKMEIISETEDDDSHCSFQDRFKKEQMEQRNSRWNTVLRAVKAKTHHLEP
# Protocol text: 45Calcium uptake assay, AITC induced, human TRPA1 expressing CHO cells
# Measurement conditions: AITC 30 micromolar, read-out: IC50 values hTRPA1
So basically: is IC50 under 6 nM? Then met. Not under? Then not met.

                           substance_smiles  assigned_category
0  Cc1oc2c(c1CC(=O)Nc1nc(-c3ccc(F)c(OC(F)(F)F)c3)cs1)c(=O)n(C)c(=O)n2C                met
1  Cn1c(=O)c2c(CC(=O)Nc3nc(-c4cccc(C(F)(F)F)c4F)cs3)nsc2n(C)c1=O                met
2  Cn1c(=O)c2c(CC(=O)Nc3nc(-c4ccc(F)cc4F)cs3)cccc2n(C)c1=O            not met
3  Cn1c(=O)c2c(cnn2CC(=O)Nc2nc(-c3cc(F)c(OCC(C)(C)C)c(Cl)c3)cs2)n(C)c1=O            not met
4  CN1C(=O)c2c(ncn2CC(=O)Nc2nc(-c3ccc(C(C)(C)C)cc3)cs2)N2CCN=C12            not met

Task: API: query returns whether the compound falls strictly under 6 nM in IC50. Query: Cn1c(=O)c2c(CC(=O)Nc3nc(-c4cccc(F)c4F)cs3)cccc2n(C)c1=O
Result: not met

Task: API: query returns whether the compound falls strictly under 6 nM in IC50. Query: Cn1nc2c(c1CC(=O)Nc1nc(-c3ccc(C(F)(F)F)c(F)c3)cs1)c(=O)n(C)c(=O)n2C
Result: not met

Task: API: query returns whether the compound falls strictly under 6 nM in IC50. Query: CCc1sc2c(c1CC(=O)Nc1nc(-c3cc(F)c(OCC(F)(F)F)c(F)c3)cs1)c(=O)n(C)c(=O)n2C
Result: met

Task: API: query returns whether the compound falls strictly under 6 nM in IC50. Query: Cn1c(=O)c2c(CC(=O)Nc3nc(-c4cc(F)cc(C(F)(F)F)c4)cs3)nsc2n(C)c1=O
Result: met
